- TARGET_OF_ASSAY: FGF14:Nav1.6 C-tail complex (Homo sapiens, UniProt Q92915+Q9UQD0)
- Construct: polymerase chain reaction (PCR) amplification of the FGF14 open reading frame (nt 1–855); C-terminal fragment of Nav1.6 (amino acids 1763–1976) fused with CD4ΔC-tail (amino acids 1–395); expressed in transfected cells
- Sequence (Q92915 1-252 isoform Q92915-2): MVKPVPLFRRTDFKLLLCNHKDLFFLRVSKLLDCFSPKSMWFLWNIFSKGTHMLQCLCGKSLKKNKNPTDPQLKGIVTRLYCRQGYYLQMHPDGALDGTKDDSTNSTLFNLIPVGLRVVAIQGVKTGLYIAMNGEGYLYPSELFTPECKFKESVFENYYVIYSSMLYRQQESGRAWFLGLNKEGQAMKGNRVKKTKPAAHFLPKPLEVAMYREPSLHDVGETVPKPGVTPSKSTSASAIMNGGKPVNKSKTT
- Sequence (Q9UQD0 1763-1976 limits assumed): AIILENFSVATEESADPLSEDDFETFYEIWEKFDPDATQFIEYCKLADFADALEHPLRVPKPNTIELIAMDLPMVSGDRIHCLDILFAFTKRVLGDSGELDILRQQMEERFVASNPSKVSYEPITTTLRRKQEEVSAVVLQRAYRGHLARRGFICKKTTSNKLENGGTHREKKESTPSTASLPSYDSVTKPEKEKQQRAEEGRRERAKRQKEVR
- EXPERIMENTAL_PROTOCOL: Split-luciferase complementation assay (LCA) in Clone V double stable HEK293 cells
- Format: cell-based
- CONDITIONS: CC_NCI screening, biological replicate Set 2; normalized to on-plate 0.3% DMSO controls (n=16 per plate)
Where a name gives a salt, the structure may show the parent alone.
Quick reference for Split Luciferase Assay %Lum Set 2 among some compounds
Give just the number in %; leave the unit off.

Known Split Luciferase Assay %Lum Set 2 results, listed for orientation:
>  <COMPOUND>
Nc1ncnc2c1c(-c1cnc3[nH]ccc3c1)nn2C1CCCC1 [PP121, reference compound]

>  <UNIT_OF_MEASUREMENT>
%

>  <MEAS_VALUE>
58.26

$$$$
>  <COMPOUND>
O=C(NCCCNc1nc(Nc2cccc(NC(=O)N3CCCC3)c2)ncc1I)c1cccs1

>  <UNIT_OF_MEASUREMENT>
%

>  <MEAS_VALUE>
28.09

$$$$
>  <COMPOUND>
NC(=O)c1ncn([C@@H]2O[C@H](CO)[C@@H](O)[C@H]2O)c1N

>  <UNIT_OF_MEASUREMENT>
%

>  <MEAS_VALUE>
110.27

$$$$
>  <COMPOUND>
O=C(O)CCCc1ccc(N(CCCl)CCCl)cc1 [Chlorambucil, reference compound]

>  <UNIT_OF_MEASUREMENT>
%

>  <MEAS_VALUE>
243.43

$$$$
>  <COMPOUND>
Nc1ccn([C@@H]2O[C@H](CO)[C@@H](O)C2(F)F)c(=O)n1 [Gemcitabine hydrochloride]

>  <UNIT_OF_MEASUREMENT>
%

>  <MEAS_VALUE>
94.67

$$$$
>  <COMPOUND>
CC(C)[C@H](NS(=O)(=O)c1ccc(-c2ccc(Br)cc2)cc1)C(=O)O

>  <UNIT_OF_MEASUREMENT>
%

>  <MEAS_VALUE>
86.35

$$$$
>  <COMPOUND>
COc1cc(O)c2c(c1)[C@H]1O[C@@H]1C[C@H](O)[C@H](O)C(=O)/C=C\C[C@H](C)OC2=O

>  <UNIT_OF_MEASUREMENT>
%

>  <MEAS_VALUE>
48.89

$$$$

Measured Split Luciferase Assay %Lum Set 2, `Cc1[nH]c2ccccc2c1CCNCc1ccc(/C=C/C(=O)NO)cc1` : 97.79

* * *

Quick reference for viability among some molecules
- EXPERIMENTAL_PROTOCOL: in vitro
- CONDITIONS: human
Give just the number in %; leave the unit off.

Known viability results, listed for orientation:
>  <MOLECULE>
CC(C)C[C@H](NC(=O)[C@H](CCc1ccccc1)NC(=O)CN1CCOCC1)C(=O)N[C@@H](Cc1ccccc1)C(=O)N[C@@H](CC(C)C)C(=O)[C@@]1(C)CO1

>  <MEAS_VALUE>
108

$$$$
>  <MOLECULE>
O=C(O)CCCc1ccc(N(CCCl)CCCl)cc1 [Chlorambucil, reference compound]

>  <MEAS_VALUE>
105

$$$$
>  <MOLECULE>
CO[C@@]12[C@H](COC(N)=O)C3=C(C(=O)C(C)=C(N)C3=O)N1C[C@@H]1N[C@@H]12

>  <MEAS_VALUE>
118

$$$$
>  <MOLECULE>
O=P1(NCCCl)OCCCN1CCCl (stereo not drawn) [Ifosfamide]

>  <MEAS_VALUE>
106

$$$$
>  <MOLECULE>
O=NN(CCCl)C(=O)NC1CCCCC1

>  <MEAS_VALUE>
103

$$$$

Measured viability, `O=NN(CCCl)C(=O)NCCCl` : 117

Measured viability, `NC(=O)Nc1cc(-c2cccc(F)c2)sc1C(=O)N[C@H]1CCCNC1` : 102

Measured viability, `C1CN1c1nc(N2CC2)nc(N2CC2)n1` : 106

Measured viability, `COc1cc(O)c2c(c1)[C@H]1O[C@@H]1C[C@H](O)[C@H](O)C(=O)/C=C\C[C@H](C)OC2=O` : 103
